Collected self-cleavage kobs at 10000 uM GlcN6P values appear next to each entry.
B1: glmS ribozyme (parent)
chain: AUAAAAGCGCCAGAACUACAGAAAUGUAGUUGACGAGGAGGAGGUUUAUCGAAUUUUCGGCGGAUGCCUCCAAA

# Variants of: B1
# method summary: self-cleavage kobs at 10000 uM GlcN6P; higher = faster cleavage; RNA array
# measurement parameters: with glucosamine-6-phosphate
Variants at the floor of the assay were thinned out.
Response body: numeric value in s⁻¹, unit text excluded.

Below, 5 variants whose answers are already recorded.
* AUAAAAGCGCCAGAACUACAGAAAUGUAGUAGACGAGGAGAAGGUUUAUCGAAUUUUCGGCGGAUGCCUCCAAA | 0.000647
* AUAAAAGCGCCAGAGCUACAGAAAUGUAGUUGACGAGGAGGAGGUUUAUCGAAUUUUCGGCGGAUGCCUCAAAA | 0.005
* AUAAAAGCGCCAGAACUACAGAAAUGUAGUUGACGAGGAGGAGUUUUAUCGAAUUGUCGGCGGAUGCCUCCAAA | 0.00015
* AUAAAAGCGCCAGAACUACAGAAAUGUAGUUGACGAGGAGGAGGUUUUUCGAACUUUCGGCGGAUGCCUCCAAA | 0.000349
* AUAAAAGCGCCAGAACUACAGAAAUGUAGUUGACGAGGAGGAGGUUUAUCGAAUUUUCGGCGGACGCCUCUAAA | 0.000659

### Prompt Which measured self-cleavage kobs at 10000 uM GlcN6P value corresponds to "AUAAAAGCGCCAGAACUACAGAAAUGUAGUUGACGAGGAGGAGGUUUAUCGUAUUUUCGGCGGAUGCCACCAAA" ?
### Response 3.63e-05

### Prompt Give its self-cleavage kobs at 10000 uM GlcN6P value. Item: "AUAAAAGCGCUAGAAAUACAGAAAUGUAGUUGACGAGGAGGAGGUUUAUCGAAUUUUCGGCGGAUGCCUCCAAA"
### Response 0.000145

### Prompt Please look up its self-cleavage kobs at 10000 uM GlcN6P: "AUAAAAGCGCCAGAACUACAGAAAUGUAGUCGACGAGGAGGAGGUUUAUCGAAUUUUCGGCGGAUGACUCCAAA"
### Response 0.000857

Recorded values, source the supplement of paper PMC7125110.
